Quick reference: TGI of the listed items.
# System: CAKI-1 renal
# run-description: NCI tumour cell line growth inhibition, 48 h

CCNC1CC(n2cc(C)c(=O)[nH]c2=O)OC1CO (stereo not given) = > 100 µM
COc1ccc(OCC(=O)O)c2c1CCC(C)C2=O (stereo not given) = > 100 µM
O=C(O)CCN1C(=S)CSC1=S = > 100 µM
Fc1ccc(-c2ncn(C3CCNCC3)c2-c2ccnc(Oc3ccc(Cl)cc3)n2)cc1 = > 16.7 µM
Cc1noc(-c2ccc(C(=O)O)[nH]2)c1Br = > 100 µM
Cc1cc(C)nc(NC(=O)COc2ccc(Cl)cc2)c1 = > 100 µM
COc1c2c(c(O)c3c4c(c(C)cc13)C1OC3(C(OC)OC5CC(C)(O)C(OC6CC(C)(O)C(O)C(C)O6)C(C)O5)OC1C(OC)(O4)C31CO1)C(=O)C(O)CC2OC1CC(C)(O)C(OC(C)=O)C(C)O1 (stereo not given) = 2.71 µM
COc1ccc(C(=O)Cn2c(C(=O)c3ccc(Cl)cc3)nc(-c3ccccc3)c2-c2ccccc2)cc1 = > 100 µM
N#C/C(=C/C=C/c1cccc(Cl)c1)S(=O)c1ccccc1 (stereo not given) = 1.08 µM

Now, please, on to the next molecule.
Enquiry: Query (molecule): CC(C)(C)c1cc(C(C)(C)C)c(SC2OC(CO)C(O)C(O)C2O)c(O)c1O (stereo not given) ; field requested: TGI
Return: > 84.9 µM

src = PubChem BioAssay (NCI)
